Species: Rattus norvegicus
Experiment: Open TG-GATES - Regimen: Daily Repeat
Type: toxicity, organism-based, Sprague-Dawley
Parameters: regimen Daily Repeat, gender Male, age 6 weeks
Details: in vivo, po, 300 mg/kg, 72 h, tissue Plasma, route gavage, dose level Middle, time 3 day
Recorded BUN by entry
MEASUREMENT NAME: BUN (mg/dL)

MOLECULE	SCALE UNIT	QUANTITATIVE RESULT
CC(S)C(=O)NCC(=O)O (centres undefined)	mg/dL	16
O=C(O)c1ccccc1Nc1ccccc1	mg/dL	14.2
CCCCNC(=O)NS(=O)(=O)c1ccc(C)cc1 [TOLBUTAMIDE]	mg/dL	13.2
CC(=O)[C@@]1(O)CC[C@H]2[C@@H]3C=C(Cl)C4=CC(=O)CC[C@]4(C)[C@H]3CC[C@@]21C	mg/dL	17.2

====

Organism: Rattus norvegicus
Assay: Open TG-GATES - Regimen: Daily Repeat
Format: toxicity, organism-based, Sprague-Dawley
Design: regimen Daily Repeat, gender Male, age 6 weeks
Settings: in vivo, po, 1000 mg/kg, […], tissue Plasma, route gavage, dose level High, time 28 day
Recorded gamma-GTP by entry

COMPOUND	gamma-GTP
CC(S)C(=O)NCC(=O)O (centres undefined)	2 IU/L
O=C(O)c1ccccc1Nc1ccccc1	1 IU/L
CCCCNC(=O)NS(=O)(=O)c1ccc(C)cc1 [TOLBUTAMIDE]	1 IU/L
CC(=O)[C@@]1(O)CC[C@H]2[C@@H]3C=C(Cl)C4=CC(=O)CC[C@]4(C)[C@H]3CC[C@@]21C	2.6 IU/L

====

Species on record: Rattus norvegicus
Experiment: Open TG-GATES - Regimen: Single
Assay type: toxicity, organism-based, Sprague-Dawley
Design: regimen Single, gender Male, age 6 weeks
Conditions: in vivo, po, 0 mg/kg, 6 h, tissue Plasma, route gavage, dose level Control

COMPOUND	SCALE UNIT	TC
CN(CCOc1ccc(CC2SC(=O)NC2=O)cc1)c1ccccn1.O=C(O)/C=C\C(=O)O (centres undefined) [ROSIGLITAZONE MALEATE]	mg/dL	83.6
CCN(CC)C(=S)SSC(=S)N(CC)CC	mg/dL	71.8
CN(C/C=C/C#CC(C)(C)C)Cc1cccc2ccccc12 [TERBINAFINE]	mg/dL	76.2
COc1ccc([C@@H]2Sc3ccccc3N(CCN(C)C)C(=O)[C@@H]2OC(C)=O)cc1 [DILTIAZEM]	mg/dL	71.8
CC(=O)[C@@]1(O)CC[C@H]2[C@@H]3C=C(Cl)C4=CC(=O)CC[C@]4(C)[C@H]3CC[C@@]21C [CHLORMADINONE]	mg/dL	73.2
O=C(O)c1ccccc1Nc1ccccc1 [FENAMIC ACID]	mg/dL	75.6
CC(S)C(=O)NCC(=O)O (centres undefined) [TIOPRONIN]	mg/dL	80.2
COc1cc2ncnc(Nc3ccc(F)c(Cl)c3)c2cc1OCCCN1CCOCC1 [GEFITINIB]	mg/dL	90.8
CCCCNC(=O)NS(=O)(=O)c1ccc(C)cc1 [TOLBUTAMIDE]	mg/dL	78.8

====

Recorded LIVER by entry
Species on record: Rattus norvegicus
Assay: Open TG-GATES - Regimen: Daily Repeat
Format: toxicity, organism-based, Sprague-Dawley
Set-up: regimen Daily Repeat, gender Male, age 6 weeks
Conditions: in vivo, po, 100 mg/kg, […], tissue Liver, route gavage, dose level Low, time 7 day
MEASUREMENT NAME: LIVER (g)

MOLECULE	QUANTITATIVE RESULT
CCCCNC(=O)NS(=O)(=O)c1ccc(C)cc1 [TOLBUTAMIDE]	12.8
CC(=O)[C@@]1(O)CC[C@H]2[C@@H]3C=C(Cl)C4=CC(=O)CC[C@]4(C)[C@H]3CC[C@@]21C [CHLORMADINONE]	11.1
O=C(O)c1ccccc1Nc1ccccc1 [FENAMIC ACID]	13
CC(S)C(=O)NCC(=O)O (centres undefined) [TIOPRONIN]	11.2

====

Species: Rattus norvegicus
Experiment: Open TG-GATES - Regimen: Daily Repeat
Type: toxicity, organism-based, Sprague-Dawley
Parameters: regimen Daily Repeat, gender Male, age 6 weeks
Conditions: in vivo, po, 0 mg/kg, […], tissue Plasma, route gavage, dose level Control, time 7 day
Recorded ALP by entry

MOLECULE	ALP
CC(=O)[C@@]1(O)CC[C@H]2[C@@H]3C=C(Cl)C4=CC(=O)CC[C@]4(C)[C@H]3CC[C@@]21C	1354.8 IU/L
CCN(CC)C(=S)SSC(=S)N(CC)CC	1448.6 IU/L
CN(C/C=C/C#CC(C)(C)C)Cc1cccc2ccccc12	874.6 IU/L
CCCCNC(=O)NS(=O)(=O)c1ccc(C)cc1 [TOLBUTAMIDE]	1890.2 IU/L
NS(=O)(=O)c1cc(C(=O)O)c(NCc2ccco2)cc1Cl [FUROSEMIDE]	1277.2 IU/L
CCCCC1C(=O)N(c2ccccc2)N(c2ccccc2)C1=O	919.6 IU/L
O=c1ccc2ccccc2o1	954.6 IU/L
O=C(O)c1ccccc1Nc1ccccc1	1493 IU/L
CN(CCOc1ccc(CC2SC(=O)NC2=O)cc1)c1ccccn1.O=C(O)/C=C\C(=O)O (configuration not stated) [ROSIGLITAZONE MALEATE]	1306.8 IU/L
CCO	783 IU/L
Nc1ccc(Cc2ccc(N)cc2)cc1	1837.2 IU/L
CC(S)C(=O)NCC(=O)O (configuration not stated)	1704.2 IU/L

====

Species on record: Rattus norvegicus
Assay: Open TG-GATES - Regimen: Single
Format: toxicity, organism-based, Sprague-Dawley
Set-up: regimen Single, gender Male, age 6 weeks
Settings: in vivo, po, 0 mg/kg, 24 h, tissue Blood, route gavage, dose level Control
Values of Neu greater than or equal to 20% map to true (1); values below map to false (0).

COMPOUND	CLASS NAME
CC(=O)[C@@]1(O)CC[C@H]2[C@@H]3C=C(Cl)C4=CC(=O)CC[C@]4(C)[C@H]3CC[C@@]21C [CHLORMADINONE]	false (0)
Nc1ccc(Cc2ccc(N)cc2)cc1	true (1)
CN(C/C=C/C#CC(C)(C)C)Cc1cccc2ccccc12 [TERBINAFINE]	false (0)
O=C(O)c1ccccc1Nc1ccccc1 [FENAMIC ACID]	false (0)
COc1cc2ncnc(Nc3ccc(F)c(Cl)c3)c2cc1OCCCN1CCOCC1 [GEFITINIB]	false (0)

====

Recorded Fbg by entry
Species on record: Rattus norvegicus
Assay: Open TG-GATES - Regimen: Single
Assay type: toxicity, organism-based, Sprague-Dawley
Parameters: regimen Single, gender Male, age 6 weeks
Conditions: in vivo, po, 0 mg/kg, 24 h, tissue Blood, route gavage, dose level Control
MEASUREMENT NAME: Fbg

COMPOUND	MEASUREMENT NAME	RESULT
O=c1ccc2ccccc2o1 [COUMARIN]	Fbg	205.4 mg/dL
CC(S)C(=O)NCC(=O)O (stereo not given) [TIOPRONIN]	Fbg	307 mg/dL
C=C[C@H]1C[N@@]2CC[C@H]1C[C@@H]2[C@@H](O)c1ccnc2ccc(OC)cc12 [QUINIDINE]	Fbg	298.2 mg/dL
CCO [ALCOHOL]	Fbg	207.4 mg/dL
COc1ccc([C@@H]2Sc3ccccc3N(CCN(C)C)C(=O)[C@@H]2OC(C)=O)cc1 [DILTIAZEM]	Fbg	259.8 mg/dL
CN(C)CCCN1c2ccccc2Sc2ccc(Cl)cc21 [CHLORPROMAZINE]	Fbg	230.4 mg/dL
NS(=O)(=O)c1cc(C(=O)O)c(NCc2ccco2)cc1Cl [FUROSEMIDE]	Fbg	270.8 mg/dL
CN(CCOc1ccc(CC2SC(=O)NC2=O)cc1)c1ccccn1.O=C(O)/C=C\C(=O)O (stereo not given) [ROSIGLITAZONE MALEATE]	Fbg	225 mg/dL
CCN(CC)C(=S)SSC(=S)N(CC)CC	Fbg	278.6 mg/dL
O=C(O)c1ccccc1Nc1ccccc1 [FENAMIC ACID]	Fbg	271 mg/dL

====

Species: Rattus norvegicus
Experiment: Open TG-GATES - Regimen: Daily Repeat
Assay type: toxicity, organism-based, Sprague-Dawley
Design: regimen Daily Repeat, gender Male, age 6 weeks
Conditions: in vivo, po, 1000 mg/kg, […], tissue Blood, route gavage, dose level High, time 28 day

COMPOUND	Lym
CCCCNC(=O)NS(=O)(=O)c1ccc(C)cc1 [TOLBUTAMIDE]	84.5%
CC(S)C(=O)NCC(=O)O (centres undefined)	79%
O=C(O)c1ccccc1Nc1ccccc1	69%
CC(=O)[C@@]1(O)CC[C@H]2[C@@H]3C=C(Cl)C4=CC(=O)CC[C@]4(C)[C@H]3CC[C@@]21C	86.4%

====

Recorded TG by entry
Species on record: Rattus norvegicus
Assay: Open TG-GATES - Regimen: Daily Repeat
Format: toxicity, organism-based, Sprague-Dawley
Design: regimen Daily Repeat, gender Male, age 6 weeks
Conditions: in vivo, po, 0 mg/kg, […], tissue Plasma, route gavage, dose level Control, time 28 day

COMPOUND	SCALE UNIT	TG
CCCCNC(=O)NS(=O)(=O)c1ccc(C)cc1 [TOLBUTAMIDE]	mg/dL	170
O=c1ccc2ccccc2o1	mg/dL	126
CCO	mg/dL	148.8
CCCCC1C(=O)N(c2ccccc2)N(c2ccccc2)C1=O	mg/dL	170.2
Nc1ccc(Cc2ccc(N)cc2)cc1	mg/dL	168.2
COc1ccc([C@@H]2Sc3ccccc3N(CCN(C)C)C(=O)[C@@H]2OC(C)=O)cc1	mg/dL	125.2
CC(=O)[C@@]1(O)CC[C@H]2[C@@H]3C=C(Cl)C4=CC(=O)CC[C@]4(C)[C@H]3CC[C@@]21C	mg/dL	112.4
CC(S)C(=O)NCC(=O)O (stereo not drawn)	mg/dL	135.4
CCN(CC)C(=S)SSC(=S)N(CC)CC	mg/dL	113.4
CN(CCOc1ccc(CC2SC(=O)NC2=O)cc1)c1ccccn1.O=C(O)/C=C\C(=O)O (stereo not drawn) [ROSIGLITAZONE MALEATE]	mg/dL	162
NS(=O)(=O)c1cc(C(=O)O)c(NCc2ccco2)cc1Cl [FUROSEMIDE]	mg/dL	116.6
O=C(O)c1ccccc1Nc1ccccc1	mg/dL	134.8
CN(C/C=C/C#CC(C)(C)C)Cc1cccc2ccccc12	mg/dL	110.2
